target: human orexin type 2 receptor (hOX2R) (Homo sapiens, UniProt O43614); experiment: cell-based
Sequence (O43614 whole entry): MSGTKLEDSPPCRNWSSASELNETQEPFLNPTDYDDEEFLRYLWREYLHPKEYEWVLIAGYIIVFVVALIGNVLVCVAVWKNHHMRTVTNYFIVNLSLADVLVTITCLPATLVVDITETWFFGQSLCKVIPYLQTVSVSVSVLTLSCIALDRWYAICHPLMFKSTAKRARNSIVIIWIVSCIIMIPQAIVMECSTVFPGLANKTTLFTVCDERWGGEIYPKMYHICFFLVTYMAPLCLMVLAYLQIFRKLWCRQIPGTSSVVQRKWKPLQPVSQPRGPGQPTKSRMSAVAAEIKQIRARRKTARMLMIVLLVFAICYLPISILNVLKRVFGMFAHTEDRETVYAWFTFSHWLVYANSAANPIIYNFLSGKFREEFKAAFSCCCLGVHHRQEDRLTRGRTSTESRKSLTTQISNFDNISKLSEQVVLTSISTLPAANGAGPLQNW

{"columns": ["smiles", "EC50"],
 "data": [
  ["N#C[C@]1(C(=O)N2CC3(CC3)[C@H](NS(=O)(=O)C(F)F)[C@@H]2Cc2cccc(-c3cccc(F)c3)c2F)CCO1", "1 to 10 nM"],
  ["CC[C@](C)(O)C(=O)N1CC2(CC2)[C@H](NS(=O)(=O)CF)[C@@H]1Cc1cccc(-c2cccc(F)c2)c1F", "0.0631 to 1 nM"],
  ["O=C([C@H]1CCCO1)N1CC2(CC2)[C@H](NS(=O)(=O)CF)[C@@H]1Cc1cccc(-c2cc(F)cc(F)c2)c1F", "1 to 10 nM"],
  ["O=C([C@H]1CCO1)N1CC2(CC2)[C@H](NS(=O)(=O)C2(F)CC2)[C@@H]1Cc1cccc(-c2ccccc2)c1F", "0.0631 to 1 nM"],
  ["C[C@@H](F)C(=O)N1CC2(CC2)[C@H](NS(=O)(=O)CF)[C@@H]1Cc1cc(F)cc(-c2cccc(F)c2)c1F", "0.0631 to 1 nM"],
  ["O=C([C@H]1CCO1)N1CC2(CC2)[C@H](NS(=O)(=O)C2(F)CC2)[C@@H]1Cc1cc(F)cc(-c2ccccc2)c1F", "1 to 10 nM"]
]}

###

biological target: human orexin type 2 receptor (hOX2R) (Homo sapiens, UniProt O43614); assay: cell-based;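 further: agonist activity in CHO cells stably expressing hOX2R, intracellular Ca2+ via Calcium 5 dye fluorescence area over 2 min, buffer-only as 0% and 10 nM orexin A as 100%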

{"columns": ["smiles", "EC50"],
 "data": [
  ["CO[C@H](C)C(=O)N1CC2(CC2)[C@H](NS(=O)(=O)CF)[C@@H]1Cc1cccc(-c2cc(F)cc(F)c2)c1F", "1 to 10 nM"],
  ["C[C@@H](F)S(=O)(=O)N[C@@H]1[C@H](Cc2cc(F)cc(-c3cc(F)cc(F)c3)c2F)N(C(=O)[C@H]2CCO2)CC12CC2", "1 to 10 nM"],
  ["N#C[C@]1(C(=O)N2CC3(CC3)[C@H](NS(=O)(=O)CF)[C@@H]2Cc2cc(F)cc(-c3ccccc3)c2F)CCO1", "1 to 10 nM"],
  ["C[C@H](F)S(=O)(=O)N[C@@H]1[C@H](Cc2cc(F)cc(-c3ccccc3)c2F)N(C(=O)[C@H]2CCO2)CC12CC2", "0.0631 to 1 nM"]
]}

###

# key: entry, value: pEC50
target: UniProtKB O43614; assay: cell-based
pEC50: −log10 of the molar value.

{"columns": ["compound", "pEC50"],
 "data": [
  ["CC[C@@](C)(O)C(=O)N1CC2(CC2)[C@H](NS(=O)(=O)C(F)F)[C@@H]1Cc1cccc(-c2cc(F)cc(F)c2)c1F [compound 77]", "9.00 to 10.20"],
  ["C[C@@](O)(CF)C(=O)N1CC2(CC2)[C@H](NS(=O)(=O)CF)[C@@H]1Cc1cccc(-c2ccccc2)c1F [compound 35]", "9.00 to 10.20"],
  ["CC(F)(F)CNC(=O)N1CC2(CC2)[C@H](NS(=O)(=O)CF)[C@@H]1Cc1cccc(-c2cc(F)cc(F)c2)c1F [compound 38]", "8.00 to 9.00"],
  ["CC[C@](C)(O)C(=O)N1CC2(CC2)[C@H](NS(=O)(=O)C(F)F)[C@@H]1Cc1cccc(-c2cc(F)cc(F)c2)c1F [compound 78]", "8.00 to 9.00"],
  ["N#C[C@]1(C(=O)N2CC3(CC3)[C@H](NS(=O)(=O)CF)[C@@H]2Cc2cccc(-c3cc(F)cc(F)c3)c2F)CCO1 [compound 47]", "8.00 to 9.00"],
  ["C[C@@](O)(C(=O)N1CC2(CC2)[C@H](NS(=O)(=O)CF)[C@@H]1Cc1cccc(-c2ccccc2)c1F)C1CC1 [compound 2]", "7.00 to 8.00"]
]}

Values compiled from patent US20250100968A1.
